Here's a batch of molecules along with measured pIC50 for FLAP (human ALOX5AP expressed in COS-7 cell membranes) (Homo sapiens (Human)).
Recall that pIC50 is obtained by taking minus log10 of the concentration measured in molar.

// known answers, use as guide
[[record]]
compoundstructurestring = "Cc1cc(-c2ccc(C(=O)[C@@H]3CCCC[C@H]3C(=O)Nc3cn[nH]c3C(F)F)cc2)n[nH]1"
val = 8.07

[[record]]
compoundstructurestring = "CNC(=O)c1c(NC(=O)[C@@H]2CCCC[C@H]2C(=O)c2ccc(-c3cc(C)[nH]n3)cc2)cnn1C"
val = 6.64

[[record]]
compoundstructurestring = "Cn1ncc(NC(=O)[C@@H]2CCCC[C@H]2C(=O)c2ccc(-c3ccn[nH]3)cc2)c1S(C)(=O)=O"
val = 7.35


// pIC50 (FLAP (human ALOX5AP expressed in COS-7 cell membranes) (Homo sapiens (Human))) for Cc1cc(-c2ccc(C(=O)[C@@H]3CCCC[C@H]3C(=O)Nc3c(C(N)=O)n[nH]c3C)cc2)[nH]n1 = 7.62

// pIC50 (FLAP (human ALOX5AP expressed in COS-7 cell membranes) (Homo sapiens (Human))) for Cn1ncc(NC(=O)[C@@H]2CCCC[C@H]2C(=O)c2ccc(-c3cc[nH]n3)cc2)c1C(N)=O = 7.47

// pIC50 (FLAP (human ALOX5AP expressed in COS-7 cell membranes) (Homo sapiens (Human))) for O=C1NCCn2ncc(NC(=O)[C@@H]3CCCC[C@H]3C(=O)c3ccc(-c4ccn[nH]4)cc3)c21 = 8.09

// pIC50 (FLAP (human ALOX5AP expressed in COS-7 cell membranes) (Homo sapiens (Human))) for CNS(=O)(=O)c1c(NC(=O)[C@@H]2CCCC[C@H]2C(=O)c2ccc(-c3cc(C)n[nH]3)cc2)cnn1C = 7.60
